src = the nanobody polyreactivity screen of Harvey et al. (2022)

experiment: yeast display, Sf9 membrane polyspecificity reagent, FACS + sequencing; frameworks hold sequencing errors
readout-kind: polyreactivity (PSR sort gate)

// Input: QVQLVESGGGLVQAGGRLRLSCAASGSTFVWYAMVWYRQAPGKEREFVATISWSDGSTYYADSVKGRFTISRDNAKNTVYLQLNSLIPEDTAVYYCASDVDRFFTYKYDYWGQGTQVTVSS . Output its polyreactivity (PSR sort gate) only.
low polyreactivity

// Input: QVQLVESGGGLVQAGGSLRLSCAASGGIFWVYAMGWYRQAPGKERELVAAISNSDTSTSYADSVKGRFTISRDNAKNTVYLQMNSLKPEDTAVYYCNADSPSLSGDYWGQGTQVTVSS . Output its polyreactivity (PSR sort gate) only.
low polyreactivity

====

assay: yeast display, Sf9 membrane polyspecificity reagent, FACS + sequencing; frameworks hold sequencing errors
readout-kind: polyreactivity (PSR sort gate)

Below, 4 sequences whose answers are already recorded.
// Input: QVQLVESGGCLFQAGGSLRLSCAASGNIFLYYAMGWYRQAPGKERELVADIDSSGASTYYADSVKGRFTISRDNAKNTGYLQMNSLIPEDTAVYDCDKDSNRYSYYSPYDSWGQGTQVTVSS . Output its polyreactivity (PSR sort gate) only.
low polyreactivity

// Input: QVQLVESGGGLVQAGGSLRLSCPASGSILYYYTMGWYRQAPGKERELVAAITYSGGSSYYADSVKGRFTISRDNAKNTVYLQMNSLKPEDTAVYYCAAAHSNRGVRKWEPLYFWGQRTQVTVSS . Output its polyreactivity (PSR sort gate) only.
low polyreactivity

// Input: QVQLVESGGGLVQAGGSLRLSCAASGSTFPKYAMGWYRQAPGKERELVASISVTTGSTYYADSVKGRFTISRDNAKITVYLQMNSLKPEDTAVYYCAKYRPGIPYYQYGSWGQGTQVTVSS . Output its polyreactivity (PSR sort gate) only.
high polyreactivity

// Input: QVQLVESGGGLVQAGGSLRLSCAASGRTFKYYAMGWYRQAPGKERELVAAITYRDRTYYADSVKGRFTISRDNAKNTVYLQMNSLKPEDTAVYYCAAQHYGSDGRGFDYWGQGTQVTVSS . Output its polyreactivity (PSR sort gate) only.
low polyreactivity

Okay, now this sequence:
// Input: QVQLVESGGGLVQAGGSLRLSCAASGLTFTAYAMGWYRQAPGKERELVAAISVRGGRTYYADSVKGRFTISRDNAKNTVYLQMNSLKPEDTAVYYCNAVRFISARYDYWGQGTQVTVSS . Output its polyreactivity (PSR sort gate) only.
high polyreactivity

====

assay: yeast display, Sf9 membrane polyspecificity reagent, FACS + sequencing; frameworks hold sequencing errors
readout-kind: polyreactivity (PSR sort gate)

// Input: QVQLVESGGGLVQAGGSLRLSCAASGSIFLIYAMGWYRQAPGKERELVAAITGGGTTNYADSVKGRFTISRDNAKNTVYLQMNSLKPEDTAVYYCNAVPRSWSPYRHWFDYWGQGTQVTVSS . Output its polyreactivity (PSR sort gate) only.
low polyreactivity

// Input: QVQLVESGGGLVQAGGSLRLSCAASGITFYYYAMGWYRQAPGKERELVASISSVGTTYYADSVKGRFTISGDNAKNTFYLEMNSLKPVDTAVYYCAAVDYVRYYPDEFDYWGQGTQVTVSS . Output its polyreactivity (PSR sort gate) only.
low polyreactivity

// Input: QVQLVESGGGLVQAGGSLRLTCAASGSIFVGYAMGWYRQAPGKERELVAAITGSGTRTYYADSVKGRFTISRDNAKNTVYLQMNSLKPEDTAVYYCAADYFRYYPYDYWGQGTQVTVSS . Output its polyreactivity (PSR sort gate) only.
low polyreactivity

// Input: QVQLVESGGGLVQAGGSLRLSCAASGSIFVTNGMGWYRQAPGKERELVAVISWGGGNTYYADSVKGRFTISRDNAKNTVYLLMNNLKPEDTAVYYCAVELYWDYYFTYGYWGKGTQVTVSS . Output its polyreactivity (PSR sort gate) only.
low polyreactivity

====

assay: yeast display, Sf9 membrane polyspecificity reagent, FACS + sequencing; frameworks hold sequencing errors
readout-kind: polyreactivity (PSR sort gate)

Below, 10 sequences whose answers are already recorded.
// Input: QVQLVESGGGLVQAGCSLRLSCAASGRTLKYNAMGGYIQAPGKERELVAAISRSGGRLYYADSVKGRFTMSRDNAKNTVYLQMNSLKPEDTAVYYCAKDRSGSYYNFPEYDYWGQGTQVTVSS . Output its polyreactivity (PSR sort gate) only.
high polyreactivity

// Input: QVQLVESGGGLVQAGGSLRLSCAASGSTFPWYDMGWYRQAPGKERELVADISGGTRTYYADSVKGRFTISRDNAKNTVYLQMNSLKPEDTAVYYCAVGYYWNEPLYWYGDFDYWGQGTQVTVSS . Output its polyreactivity (PSR sort gate) only.
high polyreactivity

// Input: QVKLVESGVGLVQAGGSLRLSCAASGSTLTRNAMGWYRQAPGKERELVAAITQRGGSTYYADSVKGRFTLSRDNAKNTVYLQMNSLKPEDTAVYYCNVRAFHKQYSEYDYWGQGTQVTVSS . Output its polyreactivity (PSR sort gate) only.
high polyreactivity

// Input: QVQLVESGGGLVQAGGSLRLSCAASGRIFFYYAMGWYRQAPGKEREFVAAISTSSGSTYYADSVKGRFTISRDNAKNTVYLQMNSLKPEDTAVYYCAADEVYSRGIWPVEDDYWGQGTQVTVSS . Output its polyreactivity (PSR sort gate) only.
low polyreactivity

// Input: QVQLVESGGGLVQAGGSLRLSCAASGIIFFKYAKGWYRQAPGKEKELVAAITSGGSTYYADSVKGRFTISRDNAKHTVYLQMNSLKPEDTAFYYCAAAGGRFIRYGYWGQGTQVTVSS . Output its polyreactivity (PSR sort gate) only.
high polyreactivity

// Input: QVQLVESGGGLVQAGGSLRLSCAASGSTFVWYAMGRYRLAPGKERELVAVIDWSGGSTSYADSVKGRFTISRDNAKNTVYLQMNSLKPEDTAVYYCNKGSSLFHWYYHWGQGTQVTVSS . Output its polyreactivity (PSR sort gate) only.
low polyreactivity

// Input: HVQLVESGGGLVQAGGSLRLSCAASGRTFSFYVMGWYRQAPGKERELVAAISSSGGRTYYADSVKGRFTISRDNAKNTVYVQMNSLKPEDTAVYYCAVDQPFVSWRLFTQPDSYPRDYWGQGTQVTVSS . Output its polyreactivity (PSR sort gate) only.
low polyreactivity

// Input: QVQLVESGGGLVQAGGSLRLSFAASGGIFWHYTRGWYRQAPGKERELVAAITRRGGSTYYADSVKGRFTISRDNAKNTVYLQMNSLKPEDTAVYYCAADFLPQSYNWYDYWGQGTQVTVSS . Output its polyreactivity (PSR sort gate) only.
low polyreactivity

// Input: QVQLVESGGVLVQAGGSLRLSCAASGFTFVSNDMGWYRQAPGKERELVAAIRYRGGDTYYADSVKGRFTISRDNAKNTVYLQMNSLKPEDTAVYYCATGKRAYSSYLFDYWGQGTQVTVSS . Output its polyreactivity (PSR sort gate) only.
low polyreactivity

// Input: QVQLVESGGGLVQAGVSLRLSCAASGRTFVTYAMGWSREAPGKEKEFVAAISRTGGSTDYADSVKGRFTISRDNAKNTVYLQMNSLKPEETAVYYCATTVIVSPSGYLKSYYWGQGTQVTVSS . Output its polyreactivity (PSR sort gate) only.
high polyreactivity

Further cases:
// Input: QVQLVESGGGLVQAGGSLRLSCAASGSIFRVYAMGWYRQAPGKERELVAAISTRGGSTYYADSVKGRFTISRDNAKNTVYLQMNSLNPEDTAVYYCAKRWPQYPDYKPMYYWGQGTQVTVSS . Output its polyreactivity (PSR sort gate) only.
high polyreactivity

====

assay: yeast display, Sf9 membrane polyspecificity reagent, FACS + sequencing; frameworks hold sequencing errors
readout-kind: polyreactivity (PSR sort gate)

Below, 5 sequences whose answers are already recorded.
// Input: QVQLVESGGGLVQAGGSRRLSCAASGSIFSQYAMGWYRQAPGKEREFVAAINWSGGRTRYADSVKGRFTISRDNAKNTVYLQMNSLKPEDTAVYYCAKVYSLYSYSGRYDYWGQGTQVTVSS . Output its polyreactivity (PSR sort gate) only.
high polyreactivity

// Input: QVQLVESGGGLVQAGGSLRLSCAASGIIFTKYAMGWYRQAPGKERELVAAITASGGSTYYADSVKGRFTISRDNAKNTVYLQMNSLKPEDTAVYYCAARSQSRYGYWGQGTQVTVSS . Output its polyreactivity (PSR sort gate) only.
high polyreactivity

// Input: QVQLVESGGGLVQAGGSLRLSCAASGFTFGRNAMGWYRQAPGKERELVAAISRGGSTYYADSVKGRFTISRDNAKNTVYLQMNSLKPEDTAVYYCAAETFLKPQYFKKFGYWGQGTQVTVSS . Output its polyreactivity (PSR sort gate) only.
high polyreactivity

// Input: QVQLVESGGGLVQAGGSLRLSCAASGRTFWSYAMGWYRQAPGKERELVAAINSSGDSTYYADSVKGRFTISRDNAKNTVYLQMNSLKPEDTAVYYCAADGGLLAGSDATVRMDYWGQGTQVTVSS . Output its polyreactivity (PSR sort gate) only.
low polyreactivity

// Input: QVQLVESGGGLVQAGGTLRLSCAASGSTFGWYAMGWYRQAPGKVREFVAAIRGGGSSTYYADSVKWRFTISRDNAKNSVSLQKNSLKQEVTAVYYCAAVTSQLYGKRYYYWGQGTQGTVSS . Output its polyreactivity (PSR sort gate) only.
high polyreactivity

Hi team, please reply with polyreactivity (PSR sort gate) for each item in this list.
1. QVQLVESGGGLVQAGGRLRLSCAASGIIFFWYVRGWYRQAPGKERELVAAINRGGITNYADSVKGRFTISRDNAKNTVYLQMNSLKTEDTAVYYCNKDWKTESWFNRYGGYGIEDDYWGQGTQVTVSS
2. QVQLEESGGGLVQAGGSLRLSCAASGLTFAQNAMGWYRQAPGKEREMVAAITSSGGRTYYADSVKGRFTISRDNANNTVYLQMNSLKPEDTAVYDCNVRYYRYGYTYGYWGQGTQVTVSS
3. QVQLVESGGGLVQAGGSLRLSCSASGFIFWYNAMGWYRQAPGKERELVAAITTAGSTNYADSVKGRFTISRDNAKNTVYLQMNSLKPEDTAVFYCNKVQLRNRYPYRYGFGDVGYWGQGTQVTVSS
4. QVQLVESGGGLVQAGGSLRLSCAASGYTFKRNDMGWYRQAPGKERELVAAISKSGGSTYYADSVKGRFTISRDNAKNTVYLQMNSLKPEDTAVYYCPGPLPYYGQYDYWGQGTQVTVSS
5. QVQLVESGGGLVQAGGSLRLSCAASGRIFKKNAMGWYRQAPGKERELVAAISYRGGSTYYADSVKGRFTISRDNAKNTVYLQMNSLKPEDTAVYYCNVGSRGGWDASDYDYWGQGTQVTVSS
6. QVQLVESGGGLVQAGGSLRLSCAASGRIFGTYGMGWYRPAPGKERELVAAISGGGSTNYADSVKGRFTISRDNAKNTVYLQMNSLKPEDTAVYYCATRWYRFYPSDYWGQGTQVTVSS
7. QVQLVESGGGLVQAGGSLRLSCAATGRTFGVNAMAWYRQAPGKESELVASIRWNGGSTYYADSVKGRFTISRDNAKNTVYLQMNSLKPEDTAVYYCNAVRRYRSREFDYWGQGSQVTVSS

high polyreactivity
high polyreactivity
low polyreactivity
low polyreactivity
high polyreactivity
low polyreactivity
low polyreactivity

Hi team, please reply with polyreactivity (PSR sort gate) for each item in this list.
1. QVQLVESGGGLVQAGGSLSLSCAASGSISDVYAMGGYRQAPGKERELVAAITSGASTYYADSVKGRFTISRDNAKNTVYLQMNSLKPEDTAVYYCAAGYSDWYYAAYNSWGQGTQVTVST
2. QVQLVESGGGLVQAGGSLRLSCAASGFTSAPNAMGWYRQAPGKERELVAAITSSTGRTRYADSVKGRFTISRDNAKNTVYLQMNSLKPEDTAVYYCAVKLLFRGTYEYWGQGTQVTVSS
3. QVQLVESGGGLVQAGGSLRLSCAASGFIFGYNAMGWYRQAPGKERELVAAITWSGGSTYYADSVKGRFTISRDNAKNTVYLQMNSLKPEDTAVDYCNWPGEGDYWGQGTQVTVSS
4. QVQLVESGGGLVQAGGSLRLSCAASGRIIGSNTMGWYRQAPGKEREFVATISSSGGSTYYADSVKGRFTISRDNAKNTVYLQMNSLKPEDTAVYYCNTRRRYPFRPYPEWRNYYWGHGTQVTVSS
5. QVQLVESGGGLVQAGGSLRLSCAASGFTFDYYTMGWSRQAPGKERELVAAISWSGGSTYYADSVKGRFTISRDNAKNTVYLQMNSLKPEDTAVYYCAVDGPKTDDIENYWGQGTQVTVSS
6. QVQLVESGGGLVQAGGSLRLSCAASGSISGIYAMGWYRQAPGKERELVAAISRGGSTNYADSVKGRFTISRDNAKNTVYLQMNSLKPEDTAVYYCAARTAYYPYRQRYYYWGQGTQVTVSS

low polyreactivity
low polyreactivity
low polyreactivity
high polyreactivity
low polyreactivity
high polyreactivity

Hi team, please reply with polyreactivity (PSR sort gate) for each item in this list.
1. QVQLVESGGGLVQAGGSLRLSCAASGITFDLYDMGWYRQAPGKERELVAAITDADSTYYADSVKGRFTISRDNAKNTVYLQMNSLKPADTAVYYCAADFFYSVYSGHYDYWGQGTQVTVSS
2. QVQLVESGAGLVRAGGSLRISCAASGNIYGANTMGWYRQAPGKERELDATITWSGGDTYYADSVKGRFTISRDNAKNSVYLQMNSLKPEDTAVYYCATRRFRYRPPFKYDYWVQGTQVTVSS
3. QVQLVESGGGLVQAGGSLRLSCAASGSIFGVNAMGWYRQAPGKERELVASITGGDSTNYADSVKGRFTISRDNAKNTVYLQMNSLKPEDTAGYYCAKDHYYRYEEGDYWGQGTQVTVSS

1: low polyreactivity; 2: low polyreactivity; 3: low polyreactivity
